Assay: Pharmacokinetics of four compounds in plasma after oral administration of GSBXD and its plus-minus prescriptions in normal rats (LC-MS/MS)
Format: in vivo
Settings: Wistar, rat, 12 mL/kg, group GSBXD-GC (GSBXD minus Gancao), 12 mL/kg oral, normal rats, n = 6, mean ± S.D.
experimental endpoint: Tmax (min)
Report only the number, with the unit min understood.

[
  {
    "molecule": "C[C@@]12C[C@@]3(O)O[C@@H](O1)[C@]1(COC(=O)c4ccccc4)[C@H]3C[C@@]12O[C@@H]1O[C@H](CO)[C@@H](O)[C@H](O)[C@H]1O",
    "experimental endpoint": "Tmax",
    "experimental result": 18.6
  }
]

From here, focus on the item given below.
Consider the molecule CC12CC(O)C3CC1(OC1OC(CO)C(O)C(O)C1O)C3(COC(=O)c1ccccc1)C(=O)O2 (centres unmarked) and give its measured Tmax.
48.6
